B1: ATL3 (parent)
chain: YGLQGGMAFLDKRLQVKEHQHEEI

Variants of: B1
assay_info: protein stability index of a GFP-peptide fusion (GPS, HEK-293T) (PSI 1-6); higher = more stable;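 further: lentivirally expressed fusions sorted by FACS into six bins by GFP to DsRed ratio, PSI derived from sequencing read proportions per bin multiplied by bin number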
test_conditions: c terminus: a fixed tail appended

variant_description	protein stability index
Y1E	4.35
Y1C	2.19
H19T	2.54
Y1I	4.07
I24M	1.71
H21R	3.51
L3A	1.92
M7K	3.76
D11P	2.33
H19P	2.5
G2M	2.39
K12G	2.22
L10M	1.54
L3Q	2.73
E22Y	2.6
K17C	2.17
E18P	2.37
Q15L	2.21
G6K	2.46
Q20K	1.85
Q15F	2.65
G5I	2.04
I24N	2.89
G2H	2.3
R13K	2.84
F9Y	1.91
G6C	2.21
G6S	2.13
G2L	1.93
L3D	2.96
R13V	2.14
Y1V	3.92
A8H	1.4
Q15T	2.04
H21Q	2.44
Q4C	3.19
I24D	2.33
G6M	2.26
L14W	2.82
H19G	2.65
Y1F	2.51
H19L	2.36
M7V	2.52
R13C	2.56
G6Q	2.95
H19D	3.38
